Tested on: ERK phosphorylation in KYSE-520 cells
Assay: Phospho-ERK cellular assay (Advanced phospho-ERK1/2 (Thr202/Tyr204) TR-FRET kit)
Assay type: cell-based
Conditions: Homo sapiens, KYSE-520, 2 h, KYSE-520 cells, 2 h at 37° C., TR-FRET; read-out: pERK IC50
Protocol: Phospho-ERK Cellular Assay ERK phosphorylation was detected using the “Advanced phospho-ERK1/2 (Thr202/Tyr204)” TR-FRET kit (Cisbio, Cat #64AERPEG/H), following the manufacturer reagents and instructions. […] After an overnight incubation, cells were treated with DMSO serial diluted compounds and incubated for 2 h at 37° C. […] After an overnight incubation, the TR-FRET signal was detected on a suitable reader (Envision, PerkinElmer). […]
pIC50: −log10 of the molar value.
TEST READOUT: pIC50

These solved cases illustrate the format of a correct answer.
// lookup pIC50 for CC1(N)CCN(c2nc3nc(Sc4cccc5ccccc45)cnc3[nH]2)CC1 5.30 to 6.00

Next molecule: N[C@@H]1c2ccccc2CC12CCN(c1nc3nc(Sc4ccnc(N5CC(O)C5)c4Cl)cnc3[nH]1)CC2 > 6.00

Next molecule: CC1(N)CCN(c2nc3nc(Sc4ccccc4C(F)(F)F)cnc3[nH]2)CC1 5.30 to 6.00

// input: 2 molecules below; output: pIC50 for each
1. Nc1nccc(Sc2cnc3[nH]c(N4CCC5(CC4)Cc4ncc(F)cc4[C@@H]5N)nc3n2)c1Cl
2. CC1(N)CCN(c2nc3nc(Sc4cccc(Cl)c4Cl)ncc3[nH]2)CC1

1. < 5.30
2. < 5.30

// input: 3 molecules below; output: pIC50 for each
1. N[C@@H]1c2ccccc2CC12CCN(c1nc3nc(Sc4ccnc(NC5CC5)c4Cl)cnc3[nH]1)CC2
2. COC(=O)c1c(N2CCC3(CC2)Cc2ccccc2[C@H]3N)[nH]c2ncc(Sc3cccc(Cl)c3Cl)nc12
3. Nc1nccc(Sc2cnc3[nH]c(N4CCC5(CC4)Cc4ccc(C6CC6)cc4[C@H]5N)nc3n2)c1Cl

1: > 6.00; 2: > 6.00; 3: > 6.00
